Would you kindly list TGI for each of these molecules?
tested on: SNB-75 CNS; experiment: NCI tumour cell line growth inhibition, 48 h
*1 amine or outer side, *2 acyl side, *3 side chain or, on linkers, in order; H or OH if unused. Where a SMILES comes first, the peptide text is derived from it. [ ]: non-standard residue; d: D form. The star is where a group is joined. ξ: configuration not given here. X27 = O=C([C@H]1CCC[C@H]1N[*:1])[*:2]; ξW = NC(Cc1c[nH]c2ccccc12)C(=O)O; ξF = NC(Cc1ccccc1)C(=O)O; Boc = CC(C)(C)OC(=O)*; ξK = NCCCCC(N)C(=O)O; ξT = CC(O)C(N)C(=O)O; tBu = CC(C)(C)*

Q. Report TGI for `CC(=O)Nc1ccccc1-c1nc2ccccc2nc1C` please.
A. > 100 µM

Q. Report TGI for CCOP(=O)(C=C=C1CCC2[C@@H]3CCc4cc(OC)ccc4C3CC[C@]12C)OCC (stereo not given in full) please.
A. 25.5 µM

Q. Report TGI for `Cc1c(C)c(C)c(CC2(C)CSC2)c(CC2(C)CSC2)c1C` please.
A. > 100 µM

Q. Report TGI for `C1=NCCN2CCN(CCN=Cc3ccccc3OCc3cccc(n3)COc3ccccc31)CC2` please.
A. 32.5 µM

Q. Report TGI for `C=C(C)[C@@H]1CC[C@]2(COCCC#N)CC[C@]3(C)[C@H](CC[C@@H]4[C@@](C)(CCCNCCC#N)[C@H](C(=C)C)CC[C@]43C)[C@@H]12` please.
A. > 50 µM

Q. Report TGI for `CC1(C)CC(=O)C(/C=N/C(N)=S)=C(O)C1` please.
A. > 100 µM

Q. Report TGI for `NC(=S)N/N=C/c1nccc2ccccc12` please.
A. 13.6 µM

Q. Report TGI for CC(OC(C)(C)C)C1NC(=O)C(CCCCNC(=O)OC(C)(C)C)NC(=O)C(Cc2c[nH]c3ccccc23)NC(=O)C(Cc2ccccc2)NC(=O)[C@H]2CCC[C@H]2NC(=O)C(Cc2ccccc2)NC1=O (stereo not given in full) (cyclo([X27][ξF][ξW][ξK](Boc)[ξT](tBu)[ξF])) please.
A. > 100 µM

Q. Report TGI for O=C1c2[nH]cc(CNC3CN4CCC3CC4)c2C(=O)c2c1c(O)c1ccccc1c2O (stereo not given) please.
A. 44.6 µM

Q. Report TGI for `CC1(C)N=C(N)N=C(N)N1c1ccc(CCCCc2ccccc2)c(Cl)c1` please.
A. 5.87 µM

---

system: UO-31 renal; test: NCI tumour cell line growth inhibition, 48 h; in the data active = GI50 below about 0.43 µM; inactive = the rest
Entry note: the call must match one of active, inactive

Q. Lab log entry: `COc1ccc(N=Cc2c(O)ccc3c2oc2cc(Cl)c(O)c(Cl)c23)cc1` — outcome as called in the assay?
A. inactive

Q. Lab log entry: `CN(C)c1ccc(/C=C/c2ccnc3c(O)cccc23)cc1` — outcome as called in the assay?
A. active

Q. Lab log entry: `Nc1ccccc1NC(=O)c1ccc(CNc2nccc(-c3cccnc3)n2)cc1` — outcome as called in the assay?
A. inactive

Q. Lab log entry: `Cn1cc(C2=C(c3ccccc3[N+](=O)[O-])C(=O)NC2=O)c2ccccc21` — outcome as called in the assay?
A. inactive

Q. Lab log entry: CCOC(=O)C1=C(C)N=c2s/c(=C\c3ccccc3O)c(=O)n2C1c1ccc(OC)c2ccccc12 (stereo not given) — outcome as called in the assay?
A. inactive

---

tested on: SF-539 CNS; test: NCI tumour cell line growth inhibition, 48 h
measure-name: TGI (µM)
Reply numerically in µM, unit not repeated.

Q. Report TGI for `O=c1[nH]nc(Cc2ccc(Cl)cc2)n1/N=C/c1ccco1` please.
A. 90.5

Q. Report TGI for CCOC(=O)C1SC(=Nc2cccc(Cl)c2C)N=C1C (stereo not drawn) please.
A. 74

Q. Report TGI for CC[C@@H]1[C@@H](C)O[C@@](O)([C@@H](C)[C@H](O)[C@H](C)[C@H]2OC(=O)/C=C/C=C/[C@H](C)[C@@H]([C@@H](C)[C@@H](O)[C@H](C)[C@@]3(O)C[C@@H](O[C@H]4C[C@@H](O)[C@H](O)C(C)O4)[C@H](CC)[C@@H](C)O3)OC(=O)/C=C/C=C/[C@@H]2C)C[C@H]1O[C@@H]1C[C@@H](O)[C@H](O)C(C)O1 (stereo partly drawn) please.
A. 0.182

Q. Report TGI for CN(C)CCCC1c2ccccc2Oc2ccc(C(F)(F)F)cc21 (stereo not drawn) please.
A. 29.5

Q. Report TGI for `O=C(/C=C/c1ccco1)c1cc(F)c(Cl)cc1Cl` please.
A. 38.1

---

test system: SNB-75 CNS; assay: NCI tumour cell line growth inhibition, 48 h; in the data active means GI50 below about 0.43 µM; inactive means the rest
Entry note: the call must match one of active, inactive

Q. Lab log entry: `CCOC(=O)c1ccccc1OC(=O)NNc1ccccc1` — outcome as called in the assay?
A. inactive

Q. Lab log entry: `O=C(COc1ccc(/C=C2\COc3ccccc3C2=O)cc1)Nc1nccs1` — outcome as called in the assay?
A. inactive

Q. Lab log entry: `C[n+]1c(/C=C/c2c[nH]c3ccccc23)ccc2ccccc21` — outcome as called in the assay?
A. inactive

Q. Lab log entry: `Cc1cccc(-c2[nH]ncc2-c2ccc3ncccc3n2)n1` — outcome as called in the assay?
A. inactive

Q. Lab log entry: OC(c1cc(-c2cccc(Cl)c2)nc2ccccc12)C1CCCCN1 (stereo not given) — outcome as called in the assay?
A. inactive

Q. Lab log entry: `C=C(C)[C@@H]1CC[C@]2(COCCC#N)CC[C@]3(C)[C@H](CC[C@@H]4[C@@](C)(CCCNCCC#N)[C@H](C(=C)C)CC[C@]43C)[C@@H]12` — outcome as called in the assay?
A. inactive

Q. Lab log entry: CC(C)(C)N1CCC1CN (stereo not given) — outcome as called in the assay?
A. inactive

Q. Lab log entry: `O=S(=O)([O-])c1ccc(N=Cc2ccccc2[O-])cc1.O=S(=O)([O-])c1ccc(N=Cc2ccccc2[O-])cc1.[O]=[U+2]=[O]` — outcome as called in the assay?
A. inactive

Q. Lab log entry: C=CCC(N[C@@H](CO)c1ccccc1)c1cn(Cc2ccccc2Cl)c(=O)n(Cc2ccccc2Cl)c1=O (stereo not given in full) — outcome as called in the assay?
A. inactive

Q. Lab log entry: `C[C@]12CCc3nc(Nc4cccc(O)c4)sc3C1=CC[C@@H]1[C@@H]2CC[C@]2(C)/C(=N\NC(N)=S)CC[C@@H]12` — outcome as called in the assay?
A. inactive

Q. Lab log entry: `Nc1ccccc1NC(=O)c1ccc(CNc2nccc(-c3cccnc3)n2)cc1` — outcome as called in the assay?
A. inactive

Q. Lab log entry: `CC[C@H](NC(=O)[C@H]1CCCCN1C)C(=O)N(C)[C@H](C[C@@H](OC(C)=O)c1nc(C(=O)N[C@@H](Cc2ccccc2)C[C@H](C)C(=O)O)cs1)C(C)C` — outcome as called in the assay?
A. active

Q. Lab log entry: `CN(C)c1ccc(/C=C/c2ccnc3c(O)cccc23)cc1` — outcome as called in the assay?
A. active

Q. Lab log entry: `Nc1c(C(=O)c2ccc(-c3cccnc3)cc2)cnn1-c1ccc(F)cc1` — outcome as called in the assay?
A. inactive

Q. Lab log entry: `O=C(/C=C/c1ccco1)c1cc(F)c(Cl)cc1Cl` — outcome as called in the assay?
A. inactive

Q. Lab log entry: `Cc1ccc(Cl)cc1Nc1nc(C(F)(F)F)ccc1C(=O)N/N=C/c1cccnc1` — outcome as called in the assay?
A. inactive

Q. Lab log entry: `CCOC(=O)[C@@H](C)C[C@H](Cc1ccccc1)NC(=O)c1nc([C@@H](C[C@H](C(C)C)N(C)C(=O)[C@@H](NC(=O)[C@H]2CCCCN2C)C(C)C)OC(C)=O)sc1CCOCc1ccccc1` — outcome as called in the assay?
A. active

Q. Lab log entry: `CC1(C)N=C(N)N=C(N)N1c1ccc(CCCCc2ccccc2)c(Cl)c1` — outcome as called in the assay?
A. active

Q. Lab log entry: `COc1ccc(N=Cc2c(O)ccc3c2oc2cc(Cl)c(O)c(Cl)c23)cc1` — outcome as called in the assay?
A. inactive

Q. Lab log entry: `NC1=CC(=O)c2cccnc2C1=O` — outcome as called in the assay?
A. inactive

---

tested on: OVCAR-5 ovarian; assay: NCI tumour cell line growth inhibition, 48 h
measure-name: TGI (µM)
Reply numerically in µM, unit not repeated.

Q. Report TGI for O=C1c2[nH]cc(CNC3CN4CCC3CC4)c2C(=O)c2c1c(O)c1ccccc1c2O (stereo not given) please.
A. 3.78

Q. Report TGI for COc1cc(C2S/C(=C/c3ccccc3)C(=O)N2c2ccc(NC(C)=O)cc2)cc(OC)c1OC (stereo not given) please.
A. 96.2

Q. Report TGI for `OCc1cc2c(ccc3sc4ccc5sc6ccc7ncccc7c6c5c4c32)s1` please.
A. 33

Q. Report TGI for CC1(C)CC(O)C2=C(O1)C(=O)c1ncccc1C2=O (stereo not given) please.
A. 3.72

Q. Report TGI for `C[C@]12CCc3nc(Nc4cccc(O)c4)sc3C1=CC[C@@H]1[C@@H]2CC[C@]2(C)/C(=N\NC(N)=S)CC[C@@H]12` please.
A. 7.77
